Ref: patent US8207172B2

system: BT474 (human breast carcinoma); assay: In vitro tumor cell proliferation assay (Cell Titer-Glo luminescent cell viability), BT474; assay type: cell-based; settings: BT-474, 72 h, BT474 cells, 72 hours of drug exposure, ATP luminescence readout, read-out: IC50, anti-proliferative activity (inhibition of cell proliferation)
Value type: IC50

>>> df
                  compound_structure_string  value_type  result
0  COC[C@@H]1CCCN1CCn1cc2c(n1)CCc1c-2sc2ncnc(Nc3ccc(F)c(Cl)c3)c12        IC50  ≤ 5 µM
1  CN1CCN(CCn2ncc3c2CCc2c-3sc3ncnc(Nc4ccc(OCc5cccc(C(F)(F)F)c5)c(Cl)c4)c23)CC1        IC50  ≤ 5 µM
2  OC[C@@H]1CCCN1CCn1cc2c(n1)CCc1c-2sc2ncnc(Nc3ccc(F)c(Cl)c3)c12        IC50  ≤ 5 µM
3  CN(C)c1ccc(NC(=O)Cn2ncc3c2CCc2c-3sc3ncnc(Nc4ccc(OCc5cccc(F)c5)c(Cl)c4)c23)cc1        IC50  ≤ 5 µM
4  COCCN1CCN(C(=O)Cn2ncc3c2CCc2c-3sc3ncnc(Nc4ccc(OCc5cccc(F)c5)c(Cl)c4)c23)CC1        IC50  ≤ 1 µM
5  OC[C@H](O)Cn1cc2c(n1)CCc1c-2sc2ncnc(Nc3ccc(OCc4cccc(F)c4)c(Cl)c3)c12        IC50  ≤ 1 µM
6  COCCNCCn1cc2c(n1)CCc1c-2sc2ncnc(Nc3ccc4c(cnn4Cc4cccc(F)c4)c3)c12        IC50  ≤ 1 µM
